system: deaminase OngC; assay: Substrate specificity analysis of OngC (ammonia production); type: biochemical, Pseudoalteromonas prydzensis ACAM 620; details: 0.5 μM OngC, 10 mM substrate, 10 mM Bis-Tris-HCl (pH 7.5), 25° C., 30 min; FIG. 4B
quantity kind: OngC activity towards substrate (production of ammonia)

- compound: "N[C@H]1C(O)O[C@H](CO)[C@H](O)[C@@H]1O (stereo partly shown)"
  observed result: "little or no activity"
- compound: "N[C@H]1C(O)O[C@H](CO)[C@@H](O)[C@@H]1O (stereo partly shown)"
  observed result: "little or no activity"
- compound: "N[C@@H]1C(O)O[C@H](CO)[C@@H](O)[C@@H]1O (stereo partly shown)"
  observed result: "little or no activity"

Each recorded value in this set is attributed to patent US11946092B2.
